Sourced from the supplement of paper PMC13207355

# Test system: E34 (patient-derived glioblastoma stem cells of proneural subtype);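 also: cell Painting imaging in 384-well plates, CellProfiler features reduced to at least 20 principal components, Euclidean distance versus same-plate DMSO vehicle wells (0.1% v/v), median over six images per well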
# assay.text: phenotypic distance (Euclidean, principal components) from DMSO controls (arbitrary units); higher = stronger morphological change
# condition: 3000 nM; exposure time: 72 h
Where a name gives a salt, the structure may show the parent alone.
Response key: yes (1) means phenotypic distance >= 2; no (0) means phenotypic distance < 2.

q: Is phenotypic distance for C[C@@H](O)[C@H]1C(=O)N2C(C(=O)O)=C(S[C@@H]3CN[C@H](C(=O)N(C)C)C3)[C@H](C)[C@H]12 [Meropenem] at or above 2?
a: no (0)

q: Is phenotypic distance for COC(=O)Nc1nc2cc(C(=O)c3ccc(F)cc3)ccc2[nH]1 [Flubendazol] at or above 2?
a: yes (1)

q: Is phenotypic distance for Cn1ncnc1[C@H]1c2n[nH]c(=O)c3cc(F)cc(c23)N[C@@H]1c1ccc(F)cc1 [Talazoparib] at or above 2?
a: yes (1)

q: Is phenotypic distance for CN[C@@H](C)C(=O)N[C@H](C(=O)N1CCC[C@H]1C(=O)N[C@H]1c2ccccc2C[C@H]1OCC#CC#CCO[C@@H]1Cc2ccccc2[C@@H]1NC(=O)[C@@H]1CCCN1C(=O)[C@@H](NC(=O)[C@H](C)NC)C1CCCCC1)C1CCCCC1 [AZD5582] at or above 2?
a: no (0)

q: Is phenotypic distance for CN(c1nccc(=O)[nH]1)C1CCN(c2nc3ccccc3n2Cc2ccc(F)cc2)CC1 [Mizolastine] at or above 2?
a: no (0)

q: Is phenotypic distance for COc1ccc([C@@H]2CC(=O)c3c(O)cc(O[C@@H]4O[C@H](CO[C@@H]5O[C@@H](C)[C@H](O)[C@@H](O)[C@H]5O)[C@@H](O)[C@H](O)[C@H]4O)cc3O2)cc1O [Hesperidin] at or above 2?
a: no (0)

q: Is phenotypic distance for Cc1c2ccncc2c(C)c2c1[nH]c1ccccc12 [Ellipticine] at or above 2?
a: yes (1)

q: Is phenotypic distance for N=C(NCCCCCCNC(=N)NC(=N)Nc1ccc(Cl)cc1)NC(=N)Nc1ccc(Cl)cc1 [Chlorhexidine] at or above 2?
a: yes (1)

q: Is phenotypic distance for CC(C)C[C@@H](C(=O)N[C@H](C(=O)OC1CCCC1)c1ccccc1)[C@H](O)C(=O)NO [Tosedostat] at or above 2?
a: no (0)

q: Is phenotypic distance for CCOC(=O)C1=C(C)NC(C)=C(C(=O)OCC)C1c1c(F)c(F)c(F)c(F)c1F [Nemadipine-A] at or above 2?
a: no (0)

q: Is phenotypic distance for COc1cc(OC)c(C(=O)CCCN2CCCC2)c(OC)c1 [Buflomedil hydrochloride] at or above 2?
a: no (0)

q: Is phenotypic distance for CCN1CCN(C(=O)Cc2ccc(Nc3ncc(F)c(Nc4ccc(C(=O)Nc5ccccc5Cl)cc4)n3)cc2)CC1 [Aurora-A Inhibitor I] at or above 2?
a: yes (1)

q: Is phenotypic distance for CN1C(=O)OC(C)(C)C1=O [Trimethadione] at or above 2?
a: no (0)

q: Is phenotypic distance for Clc1ccc(COC(Cn2ccnc2)c2ccc(Cl)cc2Cl)cc1 (stereo not drawn) [Econazole nitrate] at or above 2?
a: no (0)

q: Is phenotypic distance for Nc1ncn(C2OC(CO)C(O)C2O)c(=O)n1 (stereo not drawn) [Azacytidine-5] at or above 2?
a: no (0)

q: Is phenotypic distance for CC(C)C[C@H](NC(=O)[C@H](CCc1ccccc1)NC(=O)CN1CCOCC1)C(=O)N[C@@H](Cc1ccccc1)C(=O)N[C@@H](CC(C)C)C(=O)[C@@]1(C)CO1 [Carfilzomib] at or above 2?
a: yes (1)

q: Is phenotypic distance for C#C[C@]1(O)CC[C@H]2[C@@H]3CCC4=CCCC[C@@H]4[C@H]3CC[C@@]21C [Lynestrenol] at or above 2?
a: no (0)

q: Is phenotypic distance for Cc1ccc(C(=O)Nc2ccc(CN3CCN(C)CC3)c(C(F)(F)F)c2)cc1C#Cc1cnc2cccnn12 [Ponatinib] at or above 2?
a: yes (1)

q: Is phenotypic distance for CCCCCC[C@H]1C(=O)O[C@H](C)[C@H](NC(=O)c2cccc(NC=O)c2O)C(=O)O[C@@H](C)[C@@H]1OC(=O)CC(C)C [Antimycin A] at or above 2?
a: no (0)

q: Is phenotypic distance for CC(C)C(=O)OCC(=O)[C@@]12O[C@H](C3CCCCC3)O[C@@H]1C[C@H]1[C@@H]3CCC4=CC(=O)C=C[C@]4(C)[C@H]3[C@@H](O)C[C@@]12C [Ciclesonide] at or above 2?
a: no (0)

q: Is phenotypic distance for O=c1c2ccccc2[se]n1-c1ccccc1 [Ebselen] at or above 2?
a: no (0)

q: Is phenotypic distance for C[C@H](NC(=O)[C@@H](O)c1cc(F)cc(F)c1)C(=O)N[C@@H]1C(=O)N(C)c2ccccc2-c2ccccc21 at or above 2?
a: no (0)

q: Is phenotypic distance for CC(C)N1CCN(c2ccc(OCC3COC(Cn4cncn4)(c4ccc(Cl)cc4Cl)O3)cc2)CC1 (stereo not drawn) [Terconazole] at or above 2?
a: no (0)

q: Is phenotypic distance for O=C(Oc1cccc2cccnc12)c1ccccc1 [Benzoxiquine] at or above 2?
a: yes (1)

q: Is phenotypic distance for CCCCC(CC)CNC(=N)NC(=N)NCCCCCCNC(=N)NC(=N)NCC(CC)CCCC (stereo not drawn) [Alexidine dihydrochloride] at or above 2?
a: yes (1)

q: Is phenotypic distance for Nc1nc(=O)c2nc(CNc3ccc(C(=O)N[C@@H](CCC(=O)O)C(=O)O)cc3)cnc2[nH]1 [Folic acid] at or above 2?
a: no (0)

q: Is phenotypic distance for Oc1c(Cl)cc(Cl)c(Cl)c1Cc1c(O)c(Cl)cc(Cl)c1Cl [Hexachlorophene] at or above 2?
a: yes (1)

q: Is phenotypic distance for COc1cccc2c(NCc3ccccc3)nc(-n3c(N)nc4ccccc43)nc12 [ML240] at or above 2?
a: yes (1)
